The entries below come with measured GI50 values attached.
tested on: SNB-19 CNS; assay: NCI tumour cell line growth inhibition, 48 h

The molecule listed as N#CC1=C(N)Oc2c(sc3c(F)cccc23)C1c1ccc(F)cc1 (stereo not given) has a reported GI50 of 0.585 µM

The molecule listed as "O=Cc1ccc(O)c2ncccc12" has a reported GI50 of 6.03 µM

The molecule listed as CSC1C(=O)c2ccccc2/C(=N/Nc2nc3ccccc3s2)C1C (stereo not given) has a reported GI50 of 19.9 µM

The molecule listed as "CN1CCn2c(c(Sc3ccc(C(=O)NO)cc3)c3ccccc32)C1=O" has a reported GI50 of 2.34 µM

Continuing:
The molecule listed as "C=C1CC[C@@H]2[C@](C)(COC(C)=O)[C@H](OC(C)=O)CC[C@@]2(C)[C@@H]1C/C=C1/C(=O)OC[C@H]1OC(C)=O" has a reported GI50 of 10.8 µM
